All figures here come from PubChem BioAssay (NCI).

- System: SNB-75 CNS
- method: NCI-60 one-dose screen, 48 h (100 = growth as untreated, 0 = no growth, -100 = all killed)
- test_parameters: 10 µM unless noted
About 83,000 compounds went through this panel and 20% of them were active in at least one assay; those are over-represented in the sample as a whole. Calls of active or inactive are those of the source. The calls were made as follows: active = growth percent below 10; inactive = the rest.
property_measured: growth

compound=Cn1nc(-c2ccccc2)c2c(-c3ccccc3)onc2c1=O val="20.9% (inactive)"
compound=O=C1c2ccccc2C(=Cc2ccccc2)c2ccccc21 val="-40.9% (active)"
compound=Nc1nc(N)c2nc3c(nc2n1)CCCCCCCCCC3 val="79.2% (inactive)"
compound=COc1ccccc1-n1cnc(N)c1C(=O)c1cc(OC)c(OC)c(OC)c1 val="8.36% (active)"
compound=COc1ccc2c(c1)c(-c1nc(-c3cn(C)c4ncccc34)cs1)cn2CCCN1CCCCC1 val="77.5% (inactive)"

INPUT: Identify the measured growth of O=S(=O)(NCCNc1cc(-c2cn(-c3ccccc3)nc2-c2cccc(O)c2)ccn1)c1ccc(Cl)cc1 for SNB-75 CNS.
OUTPUT: 53.8% (inactive)
